test: solvent given as SMILES; settings: in CS(C)=O
readoutName: absorption maximum (nm)
Numeric only. Scale: nm

Query string: Entry C[n+]1ccc(-c2ccc([O-])cc2)cc1 has what absorption maximum?
Result string: 473

Query string: absorption maximum lookup needed for CC(C)(C)c1ccc(C(C)(C)C)c(N2C(=O)c3cccc4c(-c5ccc(-c6ccccc6)s5)ccc(c34)C2=O)c1 , thanks.
Result string: 405

Query string: Requested read-out: absorption maximum. Entry: c1cc2c3c(cccc3c1)NC(c1ccc3ccc4cccc5ccc1c3c45)N2
Result string: 344

Query string: Given the entry O=S(=O)(/N=c1\oc2cccc3c4c(-c5ccccc5)oc5cccc(c(c1-c1ccccc1)c23)c54)C(F)(F)F , report its measured absorption maximum.
Result string: 463

Query string: # absorption maximum lookup, item CC(C)[Si]1(C(C)C)c2cc(C=O)ccc2-c2ccc(N(c3ccccc3)c3ccccc3)cc21
Result string: 398

Query string: For the molecule C[N+]1=C(/C=C/C=C2/N(CCC[N+](C)(C)C)c3ccc(S(=O)(=O)[O-])cc3C2(C)C)C(C)(C)c2ccccc21 , what absorption maximum is on record?
Result string: 556

Query string: Request the reported absorption maximum associated with CCCCN(CCCC)c1ccc(/C=C/c2ccc(-c3ccc(/C=C/c4ccc(N(CCCC)CCCC)cc4)cc3)cc2)cc1
Result string: 412.9

Query string: Request the reported absorption maximum associated with CN1/C(=C/C=C(/C=C/C2=[N+](C)c3ccccc3C2(C)C)c2ccccc2)C(C)(C)c2ccccc21
Result string: 645
